I'd be grateful if you could share measured Enzyme degradation CDK2 (% remaining) @ 0.1 μM for these entries.
- targetSystem: CDK2 (Homo sapiens, UniProt P24941)
- Construct: endogenous in cells; host or cells: MDA-MB-231
- assayRemarks: CDK protein degradation activity (Western blotting), CDK2
- Format: cell-based
- setupConditions: MDA-MB-231 cells, 0.1 μM, 16 hours, Western blot

// field: Enzyme degradation CDK2 (% remaining) @ 0.1 μM; key: O=C1CC[C@H](N2C(=O)c3ccc(N4CCC(C(=O)N5CCN(C6CCN(c7ccc(Nc8ncnc9c8ncn9C8CC(NC(=O)Cc9ccccc9)C8)cc7)CC6)CC5)CC4)cc3C2=O)C(=O)N1 (stereo partly shown) ; value = 60/60/60%

// field: Enzyme degradation CDK2 (% remaining) @ 0.1 μM; key: Cc1cccc(C(=O)N[C@H]2C[C@@H](n3cnc4c(NC5CCN(CCC6CCN(C(=O)COc7ccc8c(c7)C(=O)N(C7CCC(=O)NC7=O)C8=O)CC6)CC5)ncnc43)C2)n1 (stereo partly shown) ; value = 70%

// field: Enzyme degradation CDK2 (% remaining) @ 0.1 μM; key: `O=C1CC[C@H](N2C(=O)C=C(N3CCC(C(=O)N4CCC(CC(=O)N5CCN(c6ccc(Nc7ncnc8c7ncn8[C@H]7C[C@@H](NC(=O)Cc8ccccc8)C7)cc6)CC5)CC4)CC3)C2=O)C(=O)N1` ; value = 30/30/30%

// field: Enzyme degradation CDK2 (% remaining) @ 0.1 μM; key: O=C1CCC(N2C(=O)c3cccc(N4CCC(OCCN5CCN(c6ccc(Nc7ncnc8c7ncn8[C@H]7C[C@@H](NC(=O)Cc8ccccc8)C7)cc6)CC5)CC4)c3C2=O)C(=O)N1 (stereo partly shown) ; value = 20/20/20%
